TEST_SYSTEM: furin, P09958;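 also: purified furin at 1:10 enzyme:substrate in 50 mM HEPES pH 7.5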
Sequence (P09958 whole entry): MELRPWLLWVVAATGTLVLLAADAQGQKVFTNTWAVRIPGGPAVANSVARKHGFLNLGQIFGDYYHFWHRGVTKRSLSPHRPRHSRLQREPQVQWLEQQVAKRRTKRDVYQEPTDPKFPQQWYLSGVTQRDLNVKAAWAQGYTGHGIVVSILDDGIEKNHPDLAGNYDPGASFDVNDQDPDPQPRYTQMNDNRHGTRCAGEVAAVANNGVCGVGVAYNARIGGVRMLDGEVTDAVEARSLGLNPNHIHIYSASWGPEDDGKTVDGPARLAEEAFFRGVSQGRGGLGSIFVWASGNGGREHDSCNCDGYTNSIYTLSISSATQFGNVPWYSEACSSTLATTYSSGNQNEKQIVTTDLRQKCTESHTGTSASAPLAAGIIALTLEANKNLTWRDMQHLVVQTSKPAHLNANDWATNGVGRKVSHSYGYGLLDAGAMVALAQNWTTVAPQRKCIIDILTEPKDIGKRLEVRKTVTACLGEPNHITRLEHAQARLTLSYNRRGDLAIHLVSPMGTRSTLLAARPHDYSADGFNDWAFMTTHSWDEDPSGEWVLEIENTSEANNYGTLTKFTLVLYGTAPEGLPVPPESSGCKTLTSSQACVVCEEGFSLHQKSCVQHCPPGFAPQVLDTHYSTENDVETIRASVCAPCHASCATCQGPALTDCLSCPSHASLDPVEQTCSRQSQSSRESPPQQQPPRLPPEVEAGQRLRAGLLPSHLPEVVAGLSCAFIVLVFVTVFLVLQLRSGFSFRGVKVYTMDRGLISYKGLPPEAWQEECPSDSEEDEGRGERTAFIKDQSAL
PROTOCOL_TEXT: furin cleavage Z-score vs untreated control; higher = more cleavage, active = 3.5 or more, inactive = 1 or less, 8 variable residues between constant flanks
CONDITIONS: 15 min
Some of the results follow. The hit rate among all sequences tested is not known here.
Each record's class is read off its furin cleavage Z-score using these ranges: b0 = under -0.7, b1 = from -0.7 up to 1, b2 = 1 and over

Exercise: read the entry CAEVPCHLPSAGNASASA [HC2365] and state which class it falls under. b1

Then this sequence: CAMEEPSQHLAGNASASA [HC20] b2

And the next one, CAVCGDDLVVAGNASASA [HC1528] ? b0

Same read-out for CAQVPSPEFFAGNASASA [HC1218] ? b1

Again, but for CASAGHTVSGAGNASASA [HC356] b1

Another sequence to look at: CARNRRTHEFAGNASASA [FS-2048] b1

Next: CAEVPCHRPPAGNASASA [HC2419] b2

For CARNRRHPRSAGNASASA [FS-560] then? b2

One more sequence: CASTPCSRHLAGNASASA [HC2533] b1

For CARLHGLSAFAGNASASA [HC1603] then? b0

Try this sequence next: CARNRRSLSGAGNASASA [FS-2577] b2
